Target: KRas G12D mutant (Homo sapiens, UniProt P01116, G12D)
Construct: fused on or other part: His tag, used for capture on nickel-coated plates
Assay: Ras GTP binding domain inhibition assay (Cy3-GTP/Cy5-GTP competition)
Conditions: at 20 μM, with SOS; read-out: KRas G12D mutant + SOS: % inh.
TEST READOUT: inhibition at 20 µM

compound="COc1cc(-c2sc3nc(-c4nccn4C)nc(N4CCC(OC)C4)c3c2-c2ccccc2)ccn1 (centres unmarked) [drawing 980]" target_under_test="KRas G12D mutant (Homo sapiens, UniProt P01116, G12D)" test_readout="inhibition at 20 µM" reported_result="51 to 75%"

The compound identified as COCCNc1nc(-c2nccn2C)nc2sc(-c3cc(OC)ccc3Cl)c(-c3ccccc3)c12 [drawing 1006] registered its inhibition at 20 µM at 1 to 25%

Kindly note the recorded inhibition at 20 µM for COCC(C)Nc1nc(-c2nccn2C)nc2sc(-c3ccccc3Cl)c(-c3cscn3)c12 (centres unmarked) [drawing 989] , which is 51 to 75%

# inhibition at 20 µM of COCCNc1nc(-c2cn(C)cn2)nc2sc(-c3ccccc3Cl)c(-c3ccc(OC)cc3)c12 [drawing 1008] = 76 to 100%
